Consider the following binders and their measured Kd readings.
# Tested Target: T1, human Mdm2 1-125 (human)
# T1 construct: Mdm2, human, residues 1-125; the stretch after the TEV site ENLYFQG of the fusion protein; source: E. coli BL21 (DE3) Rosetta T1R, purified (Ni-NTA, gel filtration)
# T1 sequence (chain, as listed by the source): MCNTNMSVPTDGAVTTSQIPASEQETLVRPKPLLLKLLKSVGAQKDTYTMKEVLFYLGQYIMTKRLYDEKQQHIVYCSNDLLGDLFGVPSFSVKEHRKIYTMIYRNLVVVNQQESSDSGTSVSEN
# Experiment Description: fluorescence polarisation; competitive fluorescence anisotropy: unlabelled peptide titrated against 250 nM Mdm2 (1-125) with 50 nM FAM-labelled 12/1 peptide (FAM-…-NH2); PBS pH 7.4, 0.001% Tween-20; apparent Kd, geometric means
# Setup Conditions: both partners purified
Positions of bridges follow the written chain, without caps; N, C: chain ends. Non-standard residues stand in square brackets, D forms with d. Primed or numbered codes have the meaning given here. Lys(N3) = [N-]=[N+]=NCCCC[C@H](N)C(=O)O; R8 = C=CCCCCCC[C@@](C)(N)C(=O)O; S5 = C=CCCC[C@](C)(N)C(=O)O; Cba′ = not defined here; βAla = NCCC(=O)O
Response body: numeric value in nM, unit text excluded.

{"columns": ["Binder", "Val"],
 "data": [
  ["Ac-[Lys(N3)][βAla]LTF[R8]KYWAQ[Cba′][S5]SAA-NH2 (staple 6-13; reading uncertain) [AZIDE-ATSP-7041 (E5K)]", 115],
  ["Ac-[Lys(N3)][βAla]ATF[R8]EYWAQ[Cba′][S5]SAA-NH2 (staple 6-13; reading uncertain) [AZIDE-ATSP-7041 (L1A)]", 10.7],
  ["Ac-[Lys(N3)][βAla]LKF[R8]EYWAQ[Cba′][S5]SAA-NH2 (staple 6-13; reading uncertain) [AZIDE-ATSP-7041 (T2K)]", 5.4]
]}

## Task Annotate the binder Ac-[Lys(N3)][βAla]LTF[R8]EYWAK[Cba′][S5]SAA-NH2 (staple 6-13; reading uncertain) [AZIDE-ATSP-7041 (Q9K)] with its measured Kd.
## Result 8.2

## Task Annotate the binder Ac-[Lys(N3)][βAla]LTF[R8]EYWKQ[Cba′][S5]SAA-NH2 (staple 6-13; reading uncertain) [AZIDE-ATSP-7041 (A8K)] with its measured Kd.
## Result 11.1
